Value source: paper PMC10586084

This section lists Ki readings for hCA IX (Homo sapiens).
# output: bare number, implied unit nM

Some solved entries appear below for comparison.
>>> data_value("Cc1ccc(-c2ccnc3nc(Nc4ccc(S(N)(=O)=O)cc4)nn23)cc1 [Compound 1t]")
41.5
>>> data_value("NS(=O)(=O)c1ccc(Nc2nc3nccc(-c4ccccc4Cl)n3n2)cc1 [Compound 1m]")
14.8
>>> data_value("NS(=O)(=O)c1ccc(Nc2nc3nccc(-c4ccccc4)n3n2)cc1 [Compound 1a]")
33.2
>>> data_value("NS(=O)(=O)c1ccc(Nc2nc3nccc(-c4cccc([N+](=O)[O-])c4)n3n2)cc1 [Compound 1r]")
49.9

Okay, now this compound:
Record NS(=O)(=O)c1ccc(Nc2nc3nccc(-c4cccs4)n3n2)cc1 [Compound 1b] / hCA IX (Homo sapiens), Ki recorded as 49.5
